Parameter: Activity (%)*. Scope: all listed entries.
Biological target: EGLN3
Assay: cell-based or functional assay
Where no end group is shown, it is not given here.
Numeric answer only, unit % assumed.

DTDLDLEMLQPYIPMDDDFQ (not fully specified; printed as DTDLDLEMLQpYIPMDDDFQ) [DTDLDLEMLQpYIPMDDDFQ]	59.9
DTDLDAEATAPYIPADDDFQ [DTDLDAEATApYIPADDDFQ]	18.5

Q) For the binder DTDLDAEALAPYIPADDDFQ [DTDLDAEALApYIPADDDFQ] , what Activity (%)* is on record?
A) 87.2

Q) And the next one, DTDLDLEMLRPYIPMDDDFQ (not fully specified; printed as DTDLDLEMLRpYIPMDDDFQ) [DTDLDLEMLRpYIPMDDDFQ] ?
A) 77.6

Q) And the next one, DTDLDLEAGAPYIPADDDFQ [DTDLDLEAGApYIPADDDFQ] ?
A) 12.2

Q) And the next one, DTDLDTEAIAPYIPADDDFQ (not fully specified; printed as DTDLDTEAIApYIPADDDFQ) [DTDLDTEAIApYIPADDDFQ] ?
A) 19

Cited source for all entries: patent US20080113383A1
